Values were extracted from patent US4201783A.

Measured LD50 by item
Measurement Notes: in vivo
Experimental Parameters: mouse, po, LD50, administered orally, Swiss mice

{"columns": ["Compound", "Result Modifier", "LD50, mg/kg"],
 "data": [
  ["CN1CCC23NC(=O)CC(c4cc(F)ccc4O2)C3C1 (centres unmarked)", "=", 1080],
  ["CN1CCC23NC(=O)CC(c4cc(Br)ccc4O2)C3C1 (centres unmarked)", "=", 720],
  ["CN1CCC23NC(=O)CC(c4c(ccc5ccccc45)O2)C3C1 (centres unmarked)", "=", 600],
  ["CN1CCC23Oc4ccc(Cl)cc4C(CC(=O)N2C)C3C1 (centres unmarked)", "=", 600],
  ["Cc1ccc2c(c1)C1CC(=O)NC3(CCN(C)CC13)O2 (centres unmarked)", "=", 1200],
  ["CC(=O)N1CCC23NC(=O)CC(c4ccccc4O2)C3C1 (centres unmarked)", ">", 3200],
  ["COc1ccc2c(c1)C1CC(=O)NC3(CCN(C)CC13)O2 (single isomer, unassigned)", "=", 1200],
  ["CN1CCC23NC(=O)CC(c4cc([N+](=O)[O-])ccc4O2)C3C1 (centres unmarked)", "=", 2470]
]}
